Attribution: patent US7351742B2

# target-of-assay: human β2 adrenergic receptor (Homo sapiens, UniProt P07550)
# Construct: expressed in transfected cells; host or cells: CHO (Chinese Hamster Ovary) cells, CHOhβ2
# Sequence (P07550 whole entry): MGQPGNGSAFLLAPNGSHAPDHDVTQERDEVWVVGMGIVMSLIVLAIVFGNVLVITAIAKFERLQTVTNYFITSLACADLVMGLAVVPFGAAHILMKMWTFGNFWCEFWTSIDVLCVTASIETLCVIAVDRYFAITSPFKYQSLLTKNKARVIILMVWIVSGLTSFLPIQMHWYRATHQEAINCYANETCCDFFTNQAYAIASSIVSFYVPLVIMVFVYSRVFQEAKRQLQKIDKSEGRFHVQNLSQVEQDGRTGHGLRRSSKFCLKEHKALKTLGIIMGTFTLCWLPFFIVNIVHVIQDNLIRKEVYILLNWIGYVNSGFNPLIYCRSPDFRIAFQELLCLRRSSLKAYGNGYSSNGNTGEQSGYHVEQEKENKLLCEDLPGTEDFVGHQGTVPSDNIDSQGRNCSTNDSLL
# assay-protocol: β2 cAMP EC50 in CHO cells recombinantly expressing the human β2 adrenergic receptor (cAMP-Flashplate)
# Type: cell-based
# condition-details: CHOhβ2 cells, 1 hour incubation
measured-metric: pEC50
In plain terms, pEC50 is the concentration in mol/L turned into minus its base-10 logarithm.

Some compounds with known pEC50 results, for comparison:
{"columns": ["compound", "pEC50"],
 "data": [
  ["CSc1ccccc1CNC(=O)Cc1cccc(CC(C)(C)NC[C@H](O)c2ccc(O)c(NS(C)(=O)=O)c2)c1 [Example 31]", 10.40],
  ["CC(C)(Cc1cccc(CC(=O)NCc2ccc(Cl)cc2)c1)NC[C@H](O)c1ccc(O)c(NS(C)(=O)=O)c1 [Example 12]", 10.30],
  ["CC(C)(Cc1ccc(CC(=O)NCc2cc(C(F)(F)F)ccc2Cl)cc1)NC[C@H](O)c1ccc(O)c(NS(C)(=O)=O)c1 [Example 67]", 10.10],
  ["COc1ccc(CNC(=O)Cc2cccc(CC(C)(C)NC[C@H](O)c3ccc(O)c(NS(C)(=O)=O)c3)c2)cc1 [Example 2]", 10.52],
  ["Cc1ccc(CNC(=O)Cc2cccc(C[C@@H](C)NC[C@H](O)c3ccc(O)c(NS(C)(=O)=O)c3)c2)cc1C [Example 38]", 10.22]
]}

Challenge: Query pEC50 on human β2 adrenergic receptor (Homo sapiens, UniProt P07550) for CC(C)(Cc1cccc(CC(=O)NCCc2ccccc2)c1)NC[C@H](O)c1ccc(O)c(NS(C)(=O)=O)c1 [Example 25]
Response given: 10.10

Challenge: Let us now turn to C[C@H](Cc1cccc(CC(=O)NCc2ccccn2)c1)NC[C@H](O)c1ccc(O)c(NS(C)(=O)=O)c1 [Example 60]
Response given: 10.70

----------
# target-of-assay: human β2 adrenergic receptor (Homo sapiens)
# assay-protocol: β2 cAMP EC50 in CHO cells recombinantly expressing the human β2 adrenergic receptor (cAMP-Flashplate)
# condition-details: CHOhβ2 cells, 1 hour incubation
# EC50 per entry
Give your result in nM as a bare value.

Some compounds with known EC50 results, for comparison:
{"columns": ["molecule", "EC50 (nM)"],
 "data": [
  ["C[C@H](Cc1cccc(CC(=O)NCc2ccc(Cl)c(Cl)c2)c1)NC[C@H](O)c1ccc(O)c(NS(C)(=O)=O)c1", 0.05],
  ["C[C@H](Cc1ccc(CC(=O)NCc2ccccc2)cc1)NC[C@H](O)c1ccc(O)c(NS(C)(=O)=O)c1", 0.02]
]}

Challenge: Can you look up the measured EC50 of C[C@H](Cc1cccc(CC(=O)NCc2ccc(C(F)(F)F)cc2)c1)NC[C@H](O)c1ccc(O)c(NS(C)(=O)=O)c1 for me?
Response given: 0.06

Challenge: Let us now turn to CC(C)(Cc1cccc(CC(=O)NCc2ccc(Cl)c(Cl)c2)c1)NC[C@H](O)c1ccc(O)c(NS(C)(=O)=O)c1
Response given: 0.08
